Ref: patent US4485088A

- procedure.text: Acute toxicity, LD50 (Example 3)
- Parameters: species or system CD-1 mice
- assay.context: mouse, in vivo, topical or ocular; percutaneously, 24-hour observation
Where a name gives a salt, the structure may show the parent alone.
attribute.measured: LD50 at 24 h

* N#CCCN [BAPN-fumarate, β-aminopropionitrile fumarate] | 23100 mg/kg
